- System: INS1
- Procedure Text: INS-1E survival protection against cytokine death – cell-based, luminescence, retest, dose response (AID 449756);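 note: cell death triggered by IL-1 beta plus TNF-alpha plus IFN-gamma mixture; protective hits raise ATP signal compared with cytokine alone wells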
- Assay type: functional
- Condition Context: Rattus norvegicus
The source made the active and inactive calls. Cut-off read from the data, not from the text of the source: actives have a measured AC50 and inactives only a lower limit.
Value Type: AC50

Item Smiles: Cc1cccc(-n2c(C)cc(/C=N/n3cnnc3)c2C)c1
Value Type: AC50
Measurement: 14.1 µM (active)

AC50 reported for this compound O=S(=O)(C/C(=C/CO)S(=O)(=O)c1ccccc1)c1ccccc1 : 9.58 µM (active)

Form field AC50, entry Cc1ccc(-c2nn(-c3ccccc3)cc2/C=N/NC(=O)c2ccc3c(c2)OCO3)cc1 : 5.54 µM (active)

AC50 recorded for this compound, Nc1nonc1-n1nnc(C(=O)N/N=C/c2cc(Br)ccc2O)c1CNc1ccccc1 , is 2.52 µM (active)

Noted for C=C[C@H](Cc1ccccc1)N(Cc1ccccc1)S(=O)(=O)N(Cc1ccccc1)[C@H](C=C)Cc1ccccc1 : its AC50 reads 4.47 µM (active)

Ref: ChEMBL document CHEMBL1201862
